This collection of values is drawn from PubChem BioAssay (EPA / NIEHS).

# Read-out: C-C motif chemokine 2 (Homo sapiens)
# protocol notes: BSK_KF3CT_MCP1: BioMAP Diversity Plus: KF3CT Assay for Monocyte Chemoattractant Protein 1 (MCP1/CCL2) Biomarker Activity (AID 2283073)
# measurement setup: primary human keratinocytes with fibroblasts; actives raise or lower the signal
Active and inactive are the calls of the source. Rule for the calls: active = hit-call score of the fitted dose curve at least 0.9, where 1 is the maximum; inactive = score below 0.9.
# valid calls are active, inactive; nothing else

C=C(C)CN(CC)c1c([N+](=O)[O-])cc(C(F)(F)F)cc1[N+](=O)[O-]	inactive
O=C1C2CC=CCC2C(=O)N1SC(Cl)(Cl)Cl (centres undefined)	active
Cc1cc(C)nc(Nc2ccccc2)n1	inactive

Here is another molecule to look at.
Give the logged outcome of this assay for the following molecule: CCOP(=O)(OCC)Oc1nc(Cl)c(Cl)cc1Cl
active

---

# Read-out: Macrophage colony-stimulating factor (MCSF), CSF1 (gene 1435)
# protocol notes: BSK_hDFCGF_MCSF: BioMAP Diversity Plus: hDFCGF Assay for Macrophage colony-stimulating factor (MCSF) Biomarker Activity (AID 2283060)
# measurement setup: primary human foreskin fibroblasts; actives raise or lower the signal
The source made the active and inactive calls. How the source made its calls: active means hit-call score of the fitted dose curve at least 0.9, where 1 is the maximum; inactive means score below 0.9.
Write down one outcome, taken from TRUE (active), FALSE (inactive)

CC1(C)C(C(=O)OC(C#N)c2cccc(Oc3ccccc3)c2)C1(C)C (stereo not given)	FALSE

Test call for this molecule, please: CO/N=C(/C1=NOCCO1)c1ccccc1Oc1ncnc(Oc2ccccc2Cl)c1F
FALSE

Tell me the assay call for COP(=S)(OC)SCn1nnc2ccccc2c1=O please.
FALSE

What was the test verdict on COc1cc(Cl)c(OC)cc1Cl ?
FALSE

Recorded test outcome, item CNC(=O)Oc1cccc2ccccc12
TRUE

For this molecule, state the assay outcome: OC(c1ccc(Cl)cc1)(c1ccc(Cl)cc1)C(Cl)(Cl)Cl
TRUE

What classification did COC(=O)NS(=O)(=O)c1ccc(N)cc1 end up with in this test?
FALSE

Each molecule tested received a call. Report the one for CCNP(=S)(OC)O/C(C)=C/C(=O)OC(C)C (stereo not given) .
FALSE

Recorded test call requested for CC(C)Nc1nc(Cl)nc(NC(C)C)n1
FALSE

Please let me know the test result on file for CNC(=O)N(C)c1nnc(C(C)(C)C)s1 .
FALSE

---

# protocol notes: Tanguay_ZF_120hpf_YSE_legacy: (Legacy) Oregon State University Tanguay Lab 120 Hour Post-fertilization zebrafish Assay for Yolk Sac Edema (AID 2283634)
Results filed as inconclusive are left out. Activity calls are given as the source filed them. The calls were made as follows: active = hit-call score of the fitted dose curve at least 0.9, where 1 is the maximum; inconclusive = response in the unintended direction; inactive = score below 0.9.
Lab note: assign the record to one of active, inactive

Known results for compounds:
CCCN(CC)CC1COC2(CCC(C(C)(C)C)CC2)O1 (centres undefined)	inactive
CC1(C)C(C=C(Cl)Cl)C1C(=O)OC(C#N)c1cccc(Oc2ccccc2)c1 (centres undefined)	active
Cc1c(COC(=O)[C@@H]2[C@H](/C=C(\Cl)C(F)(F)F)C2(C)C)cccc1-c1ccccc1	inactive

Could you check what this test reported for CO/N=C(/C1=NOCCO1)c1ccccc1Oc1ncnc(Oc2ccccc2Cl)c1F ?
inactive

Per the assay record, what outcome was assigned to COC(=O)NC(=S)Nc1ccccc1NC(=S)NC(=O)OC ?
active

In this assay, the call recorded for CCOc1nc(C(Cl)(Cl)Cl)ns1 was what?
inactive

# fetch the recorded call for Nc1c(Cl)c(F)nc(OCC(=O)O)c1Cl here
inactive

Could you check what this test reported for O=C(Nc1ccccc1-c1ccc(Cl)cc1)c1cccnc1Cl ?
inactive

Lab log entry: N#CN=C1SCCN1Cc1ccc(Cl)nc1 — outcome as called in the assay?
inactive

Tell me the recorded outcome of this test for Cc1ccc(N=CN(C)C=Nc2ccc(C)cc2C)c(C)c1 .
inactive

Assay outcome for CCN(CC)C(=O)C(C)Oc1cccc2ccccc12 (centres undefined) : what was it?
active

---

# Read-out: CYP4A11 (gene 1579)
# protocol notes: LTEA_HepaRG_CYP4A11: Life Technologies and Expression Analysis (LTEA) Assay for CYP4A11 using HepaRG (AID 2283486)
# measurement setup: mRNA level, 48 h; actives raise or lower the signal
Calls of active or inactive are those of the source. How the source made its calls: active means hit-call score of the fitted dose curve at least 0.9, where 1 is the maximum; inactive means score below 0.9.
Outcome field: choose from YES (active), NO (inactive)

Completed entries (count: 8):
Nc1cnn(-c2ccccc2)c(=O)c1Cl	NO
COc1cc(Cl)c(OC)cc1Cl	NO
OC(c1ccc(Cl)cc1)(c1ccc(Cl)cc1)C(Cl)(Cl)Cl	YES
CC1(C)CCC(=Cc2ccc(Cl)cc2)C1(O)Cn1cncn1 (centres undefined)	YES
Cc1cnc(C2=NC(C)(C(C)C)C(=O)N2)c(C(=O)O)c1 (centres undefined)	NO
CCCCOCN(C(=O)CCl)c1c(CC)cccc1CC	YES
COCC(=O)N(c1c(C)cccc1C)C(C)C(=O)OC (centres undefined)	NO
COC(=O)c1c(C(F)F)nc(C(F)(F)F)c(C2=NCCS2)c1CC(C)C	NO

# ---- query molecule ----
Which outcome was entered for the molecule Clc1nc(Cl)nc(Nc2ccccc2Cl)n1 in this test?
NO

---

# protocol notes: ATG_NRF2_ARE_CIS: Attagene CIS-FACTORIAL HepG2 Assay for human Nuclear Factor Erythroid 2 Related Factor 2 (NFR2) response to Antioxidant Response Elements (ARE) (AID 2282992)
# measurement setup: HepG2 Attagene ARE/NRF2 reporter, transcription factor activity; actives raise or lower the signal
The source made the active and inactive calls. How the source made its calls: active means hit-call score of the fitted dose curve at least 0.9, where 1 is the maximum; inactive means score below 0.9.
Valid outcomes are listed here; reply with one: active, inactive

Cc1cc(C)nc(Nc2ccccc2)n1	active
Clc1cccc(C(Cl)(Cl)Cl)n1	inactive
C=C(C)CN(CC)c1c([N+](=O)[O-])cc(C(F)(F)F)cc1[N+](=O)[O-]	active
CCN(CC)C(=O)C(C)Oc1cccc2ccccc12 (configuration not stated)	active
CC(C)Nc1nc(Cl)nc(NC(C)C)n1	inactive
CCNP(=S)(OC)O/C(C)=C/C(=O)OC(C)C (configuration not stated)	active

Turning now to a further record.
Hi, sorry to bother you, what did the test record for CCCCC(C#N)(Cn1cncn1)c1ccc(Cl)cc1 (configuration not stated) ?
inactive

---

# protocol notes: APR_HepG2_MicrotubuleCSK_72hr: Apredica 72-hour HepG2 Assay for Microtubule CSK Stabilty (AID 2282919)
# measurement setup: HepG2 microtubule cytoskeleton, high-content imaging, actives raise or lower the signal
Calls of active or inactive are those of the source. The calls were made as follows: active = hit-call score of the fitted dose curve at least 0.9, where 1 is the maximum; inactive = score below 0.9.
Select the matching outcome among class 1 (active), class 0 (inactive)

The following compounds have reported results that may help.
CCOP(=S)(OCC)Oc1nc(Cl)n(C(C)C)n1	class 0
Clc1nc(Cl)nc(Nc2ccccc2Cl)n1	class 0
CCSC(=O)N1CCCCCC1	class 0
CCNC(=O)NC(=O)C(C#N)=NOC	class 0
OC(c1ccc(Cl)cc1)(c1ccc(Cl)cc1)C(Cl)(Cl)Cl	class 1

For this compound, state the assay outcome: CC(C)Nc1nc(Cl)nc(NC(C)C)n1
class 0

Hey, what did the test say about O=C1C2CC=CCC2C(=O)N1SC(Cl)(Cl)Cl (centres undefined) ?
class 0

Assay outcome for CS(=O)(=O)c1ccc(C(=O)C2C(=O)CCCC2=O)c([N+](=O)[O-])c1 : what was it?
class 0

For this compound, state the assay outcome: Cc1nc(N(C)C)nc(OC(=O)N(C)C)c1C
class 0

# lookup: test call for O=c1n(Cl)c(=O)n(Cl)c(=O)n1Cl
class 0

Returns: the outcome recorded for CCOC(=O)C(C)OC(=O)c1cc(Oc2ccc(C(F)(F)F)cc2Cl)ccc1[N+](=O)[O-] (centres undefined) in this assay.
class 0

Test call for this compound, please: Nc1c(Cl)c(F)nc(OCC(=O)O)c1Cl
class 0

Kindly provide the recorded test outcome for the following compound: N#Cc1c(Cl)cccc1Cl
class 0

Query: recorded result category for CCOc1nc(C(Cl)(Cl)Cl)ns1 in this test
class 0

---

# protocol notes: CCTE_Shafer_MEA_acute_burst_duration_mean: CCTE's Neural Acute Assay for Mean Burst Duration, Shafer Lab (AID 2284014);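 note: hits are decreases in mean burst duration relative to DMSO controls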
Activity calls are given as the source filed them. How the source made its calls: active means hit-call score of the fitted dose curve at least 0.9, where 1 is the maximum; inactive means score below 0.9.
Pick from active, inactive when you respond.

Would you please look over these solved cases?
Cn1c(-c2ccccc2)cc(-c2ccccc2)[n+]1C	inactive
N#CN=C1SCCN1Cc1ccc(Cl)nc1	inactive
Cc1ccc(N=CN(C)C=Nc2ccc(C)cc2C)c(C)c1	active
CCOC(=O)C(C)OC(=O)c1cc(Oc2ccc(C(F)(F)F)cc2Cl)ccc1[N+](=O)[O-] (stereo not given)	inactive

Let us examine a further case.
# lookup: test call for CC(C)C1(C)N=C(c2ncccc2C(=O)O)NC1=O (stereo not given)
inactive

---

# protocol notes: BSK_SAg_Proliferation: Cell Proliferation Assessment in the BioMAP Diversity Plus: SAg Assay (AID 2283095);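 note: relative cell number as total protein by SRB absorbance in sub-confluent culture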
# measurement setup: primary human HUVEC with PBMC
Active and inactive are the calls of the source. Rule for the calls: active = hit-call score of the fitted dose curve at least 0.9, where 1 is the maximum; inactive = score below 0.9.
Choose one outcome from this list and give only that: active, inactive

CNC(=O)Oc1cccc2ccccc12	active

Note: attention shifts to another entry.
I'd appreciate the recorded outcome for CC(C)NC(=O)N1CC(=O)N(c2cc(Cl)cc(Cl)c2)C1=O from this test.
inactive

---

# Read-out: xenobiotic metabolism (CYP1A2), CYP1A2 (gene 1544)
# protocol notes: CLD_CYP1A2_24hr: CellzDirect (CLD) Gene Expression Assay for xenobiotic metabolism (CYP1A2) at 24 hours (AID 2283683)
# Experimental: CLD_24hr is a cell-based, multiplexed-readout assay that uses hepatocyte, a human liver primary cell, with measurements taken at 24 hours after chemical dosing in a 96-well plate.CLD_CYP1A2_24hr is one of 16 assay component(s) measured or calculated from the CLD_24hr assay. […] Furthermore, this assay endpoint can be referred to as a primary readout. […]
Records with an inconclusive call do not appear. The source made the active and inactive calls. The calls were made as follows: active = hit-call score of the fitted dose curve at least 0.9, where 1 is the maximum; inconclusive = response in the unintended direction; inactive = score below 0.9.
// classify into t (active), f (inactive)

Before answering, review these 2 worked examples.
CCOP(=S)(OCC)Oc1nc(Cl)n(C(C)C)n1	t
CC1(C)C(C(=O)OC(C#N)c2cccc(Oc3ccccc3)c2)C1(C)C (stereo not drawn)	t

Please indicate how the test categorized CCOc1nc(F)cc2nc(S(=O)(=O)Nc3c(Cl)cccc3Cl)nn12 .
f
